// provenance: ChEMBL document CHEMBL4359902

Tgt: Phosphatidylinositol 4,5-bisphosphate 3-kinase catalytic subunit beta isoform (Homo sapiens, UniProt P42338)
Sequence (P42338 whole entry, canonical isoform): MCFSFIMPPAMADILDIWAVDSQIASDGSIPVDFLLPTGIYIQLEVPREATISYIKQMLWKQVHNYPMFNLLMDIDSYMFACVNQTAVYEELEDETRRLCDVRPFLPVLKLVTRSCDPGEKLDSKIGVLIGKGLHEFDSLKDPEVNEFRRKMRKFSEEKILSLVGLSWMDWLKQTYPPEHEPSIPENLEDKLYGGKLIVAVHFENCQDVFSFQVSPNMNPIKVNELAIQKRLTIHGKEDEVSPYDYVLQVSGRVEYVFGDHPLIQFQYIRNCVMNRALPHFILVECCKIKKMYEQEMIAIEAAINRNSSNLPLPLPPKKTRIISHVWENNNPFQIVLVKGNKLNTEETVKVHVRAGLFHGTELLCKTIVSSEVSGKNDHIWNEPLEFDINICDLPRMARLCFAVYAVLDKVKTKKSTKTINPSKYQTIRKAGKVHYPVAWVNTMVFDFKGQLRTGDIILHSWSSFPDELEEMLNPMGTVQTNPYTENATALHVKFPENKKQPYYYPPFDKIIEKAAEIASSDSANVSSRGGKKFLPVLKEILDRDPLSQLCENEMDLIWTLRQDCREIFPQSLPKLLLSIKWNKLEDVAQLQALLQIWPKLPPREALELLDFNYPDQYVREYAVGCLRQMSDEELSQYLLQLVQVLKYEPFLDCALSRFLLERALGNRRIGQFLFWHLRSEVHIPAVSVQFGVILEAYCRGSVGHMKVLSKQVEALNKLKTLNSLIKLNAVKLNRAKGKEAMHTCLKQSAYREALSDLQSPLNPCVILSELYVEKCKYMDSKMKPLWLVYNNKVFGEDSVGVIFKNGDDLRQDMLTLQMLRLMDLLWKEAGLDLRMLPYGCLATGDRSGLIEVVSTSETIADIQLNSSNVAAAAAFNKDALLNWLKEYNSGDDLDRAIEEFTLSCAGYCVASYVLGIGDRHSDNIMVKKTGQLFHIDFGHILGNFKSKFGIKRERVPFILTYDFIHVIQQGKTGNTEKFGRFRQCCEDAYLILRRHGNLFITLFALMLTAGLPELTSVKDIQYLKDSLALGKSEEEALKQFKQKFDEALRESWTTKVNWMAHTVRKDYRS
Protocol text: Inhibition of PI3Kbeta (unknown origin) using diC8-PI(4,5)P2 as substrate incubated for 3 hrs in presence of ATP by fluorescence polarization assay
pIC50 overview
Just so you know, pIC50 here is -log10 of the concentration in molar units; reply with that number alone.

The cases that follow already have their pIC50 on record.
# Smiles entry, pIC50
measured = [
    ("O=c1oc2ccccc2c2nn(CN3CCN(S(=O)(=O)c4ccc(Br)cc4)CC3)cc12", 5.01),
    ("O=c1oc2ccccc2c2nn(CN3CCN(S(=O)(=O)c4ccc(Cl)c([N+](=O)[O-])c4)CC3)cc12", 6.92),
]

q: Give its pIC50 value. Item: CC(C)c1cc(C(C)C)c(S(=O)(=O)N2CCN(Cn3cc4c(=O)oc5ccccc5c4n3)CC2)c(C(C)C)c1
a: 6.68

q: Item under review: O=c1oc2ccccc2c2nn(CN3CCN(S(=O)(=O)c4ccccc4[N+](=O)[O-])CC3)cc12 . Reported pIC50?
a: 5.04

q: Could you tell me which pIC50 is on file for Cc1ccc(C)c(S(=O)(=O)N2CCN(Cn3cc4c(=O)oc5ccccc5c4n3)CC2)c1 ?
a: 6.07

q: What value of measured pIC50 is listed for CC(C)(C)c1ccc(S(=O)(=O)N2CCN(Cn3cc4c(=O)oc5ccccc5c4n3)CC2)cc1 ?
a: 5.58

q: State the recorded pIC50 for this entry: O=c1oc2ccccc2c2nn(CN3CCN(S(=O)(=O)c4ccc(Cl)cc4)CC3)cc12
a: 5.66

q: Please report the recorded pIC50 for O=c1oc2ccccc2c2nn(CN3CCN(S(=O)(=O)c4ccc([N+](=O)[O-])cc4)CC3)cc12 .
a: 5.38

====

In this section we review reported CC50 values for a set of compounds.
Protocol text: Cytotoxicity against human 293T cells
Type: cell-based
Condition info: HEK-293T cells

The cases that follow already have their CC50 on record.
# Smiles entry, CC50
data = [
    ("Cc1cc(C)c(S(=O)(=O)N2CCN(Cn3cc4c(=O)oc5ccccc5c4n3)CC2)c(C)c1", "354 µM"),
    ("O=c1oc2ccccc2c2nn(CN3CCN(S(=O)(=O)c4cccc([N+](=O)[O-])c4)CC3)cc12", "412 µM"),
]

q: Requested read-out: CC50. Entry: CC(C)(C)c1ccc(S(=O)(=O)N2CCN(Cn3cc4c(=O)oc5ccccc5c4n3)CC2)cc1
a: 231 µM

====

Test system: Huh-7
Protocol text: Antiproliferative activity against human HuH7 cells assessed as reduction in cell viability after 48 hrs by MTT assay
Format: functional, cell-based
Condition info: Huh-7, 48 h
# IC50 per entry
Dear colleague, please return just the value in µM, with no unit written.

Field: example entries. Status: answers known.
# Smiles entry, IC50 (µM)
records = [
    ("O=c1oc2ccccc2c2nn(CN3CCN(S(=O)(=O)CCCCl)CC3)cc12", 48.5),
    ("O=c1oc2ccccc2c2nn(CN3CCN(S(=O)(=O)c4ccc(Cl)c([N+](=O)[O-])c4)CC3)cc12", 0.09),
    ("O=c1oc2ccccc2c2nn(CN3CCN(S(=O)(=O)CCCl)CC3)cc12", 62.9),
    ("O=c1oc2ccccc2c2nn(CN3CCN(S(=O)(=O)C4CC4)CC3)cc12", 79),
    ("CCCS(=O)(=O)N1CCN(Cn2cc3c(=O)oc4ccccc4c3n2)CC1", 87.6),
]

Moving on to another molecule below.
q: I am curious: what IC50 value has been reported for O=c1oc2ccccc2c2nn(CN3CCN(S(=O)(=O)c4ccc(Br)cc4)CC3)cc12 ?
a: 5.08
